Where do the numbers come from? From paper PMC10821019.

- System: A2780cis (resistant derivative of A2780)
- assay details: SRB cytotoxicity assay, A2780cis
- Type: cell-based, human
- test conditions: SRB assay, 72 h treatment, mean n = 3, SD 5-10%
List of IC50 values.
The reply should be a number in nM, with the unit left off.

Please report the recorded IC50 for CC12CCC3C(CCC4C(C)(C(=O)OCC[n+]5ccc(C=Cc6c[nH]c7ccccc67)cc5)CCCC34C)(CC1=O)C2.[Br-] (stereo not drawn) [Compound 9] .
1540

Next entry: C=C1C[C@@]23CC[C@H]4[C@@](C)(CCC[C@@]4(C)C(=O)OCCBr)[C@@H]2CC[C@]1(O)C3 [Compound 6]
28100

* * *

- System: MCF7 (breast carcinoma)
- assay details: SRB cytotoxicity assay, MCF7
- Format: cell-based, human
- test conditions: 72 h treatment, mean n = 3, SD 5-10%
quantity: IC50 (nM)
Give the quantity in nM, number only.

molecule	quantity	units of measure	val
C[C@@]12CC[C@@H]3[C@@](CC[C@H]4[C@@]3(C)CCC[C@@]4(C)C(=O)OCCBr)(CC1=O)C2	IC50	nM	11800

Reported IC50 for C=C1C[C@@]23CC[C@H]4[C@@](C)(CCC[C@@]4(C)C(=O)OCCCC[n+]4ccc(/C=C/c5c[nH]c6ccccc56)cc4)[C@@H]2CC[C@]1(O)C3.[Br-] : what is it?
580

Same read-out for C=C1C[C@@]23CC[C@H]4[C@@](C)(CCC[C@@]4(C)C(=O)OCCC[n+]4cccc(/C=C/c5c[nH]c6ccccc56)c4)[C@@H]2CC[C@]1(O)C3.[Br-] ?
9470

// query: C=C1C[C@@]23CC[C@H]4[C@@](C)(CCC[C@@]4(C)C(=O)OCC[n+]4ccccc4/C=C/c4c[nH]c5ccccc45)[C@@H]2CC[C@]1(O)C3.[Br-]
20200

Next up: C=C1C[C@@]23CC[C@H]4[C@@](C)(CCC[C@@]4(C)C(=O)OCCCC[n+]4ccccc4/C=C/c4c[nH]c5ccccc45)[C@@H]2CC[C@]1(O)C3.[Br-]
1180

Query CC12CCC3C(CCC4C(C)(C(=O)OCCC[n+]5cccc(C=Cc6c[nH]c7ccccc67)c5)CCCC34C)(CC1=O)C2.[Br-] (stereo not drawn) next
2500

Check CC12CCC3C(CCC4C(C)(C(=O)OCCCC[n+]5cccc(C=Cc6c[nH]c7ccccc67)c5)CCCC34C)(CC1=O)C2.[Br-] (stereo not drawn) too.
1570

Same question for CC12CCC3C(CCC4C(C)(C(=O)OCCCC[n+]5ccccc5C=Cc5c[nH]c6ccccc56)CCCC34C)(CC1=O)C2.[Br-] (stereo not drawn) please.
2050

What about C=C1C[C@@]23CC[C@H]4[C@@](C)(CCC[C@@]4(C)C(=O)OCCBr)[C@@H]2CC[C@]1(O)C3 ?
29400

* * *

- System: A549 (lung carcinoma)
- assay details: SRB cytotoxicity assay, A549
- Format: cell-based, human
- test conditions: SRB assay, 72 h treatment, mean n = 3, SD 5-10%
quantity: IC50 (µM)
Provide the reading as a plain figure in µM.

Answered examples (4):
compound	subject of test	val
CC12CCC3C(CCC4C(C)(C(=O)OCCCBr)CCCC34C)(CC1=O)C2 (centres unmarked)	A549 (lung carcinoma)	24.8
C=C1C[C@@]23CC[C@H]4[C@@](C)(CCC[C@@]4(C)C(=O)OCCC[n+]4ccccc4/C=C/c4c[nH]c5ccccc45)[C@@H]2CC[C@]1(O)C3.[Br-]	A549 (lung carcinoma)	12.6
CC12CCC3C(CCC4C(C)(C(=O)OCCCC[n+]5cccc(C=Cc6c[nH]c7ccccc67)c5)CCCC34C)(CC1=O)C2.[Br-] (centres unmarked)	A549 (lung carcinoma)	6.28
C=C1C[C@@]23CC[C@H]4[C@@](C)(CCC[C@@]4(C)C(=O)OCCCBr)[C@@H]2CC[C@]1(O)C3	A549 (lung carcinoma)	29

Entry CC12CCC3C(CCC4C(C)(C(=O)OCC[n+]5ccccc5C=Cc5c[nH]c6ccccc56)CCCC34C)(CC1=O)C2.[Br-] (centres unmarked) : reported IC50 = ?
10.8

Another compound: C=C1C[C@@]23CC[C@H]4[C@@](C)(CCC[C@@]4(C)C(=O)OCCCC[n+]4ccc(/C=C/c5c[nH]c6ccccc56)cc4)[C@@H]2CC[C@]1(O)C3.[Br-]
2.76

What do we get for C=C1C[C@@]23CC[C@H]4[C@@](C)(CCC[C@@]4(C)C(=O)OCC[n+]4ccccc4/C=C/c4c[nH]c5ccccc45)[C@@H]2CC[C@]1(O)C3.[Br-] ?
54.3

Please do the same for C=C1C[C@@]23CC[C@H]4[C@@](C)(CCC[C@@]4(C)C(=O)OCCBr)[C@@H]2CC[C@]1(O)C3 as well.
83.4
